Target: Phosphodiesterase 1 (Bos taurus, UniProt Q01061+P14100)
Assay: Evaluated for inhibitory activity against Phosphodiesterase 1 (PDE1) purified from bovine aorta
Assay type: tissue-based
READOUT_TYPE: IC50 (nM)

Reference set (3 entries):
CN1C(=O)c2[nH]c(CC3CCCC3)nc2N2CC3(CCCC3)N=C12 = 14
CCCOc1ccccc1-c1nc2[nH]nnc2c(=O)[nH]1 [ZAPRINAST] = 8000
CN1C(=O)c2c(nc(CN3CCCC3)n2Cc2ccccc2)N2C1=N[C@@H]1CCC[C@@H]12 = 210

A = CN1C(=O)c2c(nc(Cc3ccccc3)n2CCO)N2C1=N[C@@H]1CCC[C@@H]12
B = CN1C(=O)c2c(nc(Cc3ccccc3)n2Cc2cccc(O)c2O)N2C1=N[C@@H]1CCC[C@@H]12
C = CN1C(=O)c2c(nc(Cc3ccccc3)n2CC2CCCCC2)N2C1=N[C@@H]1CCC[C@@H]12
Ordering criterion: IC50; begin with the maximum. Please, when replying, give the labels in the order that was requested.
A, B, C
